Could you please report measured total protein half-life in vivo for the items listed next?
protocol: total protein half-life in vivo (active degradation + dilution); higher = more stable protein
experimental-setup: E. coli NCM3722 delta-lon; growth: N-lim chemostat; doubling time 6 h
Answers are plain numbers, in h.

These recorded examples may help you get a feel for the data.
MLKTIRKHGITLALFAAGSTGLTAAINQMTKTTIAEQASLQQKALFDQVLPAERYNNALAQSCYLVTAPELGKGEHRVYIAKQDDKPVAAVLEATAPDGYSGAIQLLVGADFNGTVLGTRVTEHHETPGLGDKIELRLSDWITHFAGKKISGADDAHWAVKKDGGDFDQFTGATITPRAVVNAVKRAGLYAQTLPAQLSQLPACGE | 5.52
MTNQPTEIAIVGGGMVGGALALGLAQHGFAVTVIEHAEPAPFVADSQPDVRISAISAASVSLLKGLGVWDAVQAMRCHPYRRLETWEWETAHVVFDAAELKLPLLGYMVENTVLQQALWQALEAHPKVTLRVPGSLIALHRHDDLQELELKGGEVIRAKLVIGADGANSQVRQMAGIGVHAWQYAQSCMLISVQCENDPGDSTWQQFTPDGPRAFLPLFDNWASLVWYDSPARIRQLQNMNMAQLQAEIAKHFPSRLGYVTPLAAGAFPLTRRHALQYVQPGLALVGDAAHTIHPLAGQGVNLGYRDVDALIDVLVNARSYGEAWASYPVLKRYQMRRMADNFIMQSGMDLFYAGFSNNLPPLRFMRNLGLMAAERAGVLKRQALKYALGL | 3.34

Kindly consider the entry below.
Consider MTDNNTALKKAGLKVTLPRLKILEVLQEPDNHHVSAEDLYKRLIDMGEEIGLATVYRVLNQFDDAGIVTRHNFEGGKSVFELTQQHHHDHLICLDCGKVIEFSDDSIEARQREIAAKHGIRLTNHSLYLYGHCAEGDCREDEHAHEGK [P0A9A9] . Its measured total protein half-life in vivo is 6.38

---

protocol: total protein half-life in vivo (active degradation + dilution); higher = more stable protein
experimental-setup: wild type E. coli NCM3722; growth: C-lim chemostat; doubling time 3 h
readout-name: total protein half-life in vivo (h)
Numbers only, in h.

MSDDNSHSSDTISNKKGFFSLLLSQLFHGEPKNRDELLALIRDSGQNDLIDEDTRDMLEGVMDIADQRVRDIMIPRSQMITLKRNQTLDECLDVIIESAHSRFPVISEDKDHIEGILMAKDLLPFMRSDAEAFSMDKVLRQAVVVPESKRVDRMLKEFRSQRYHMAIVIDEFGGVSGLVTIEDILELIVGEIEDEYDEEDDIDFRQLSRHTWTVRALASIEDFNEAFGTHFSDEEVDTIGGLVMQAFGHLPARGETIDIDGYQFKVAMADSRRIIQVHVKIPDDSPQPKLDE [P0AE78] | 2.91
MNNSAFTFQTLHPDTIMDALFEHGIRVDSGLTPLNSYENRVYQFQDEDRRRFVVKFYRPERWTADQILEEHQFALQLVNDEVPVAAPVAFNGQTLLNHQGFYFAVFPSVGGRQFEADNIDQMEAVGRYLGRMHQTGRKQLFIHRPTIGLNEYLIEPRKLFEDATLIPSGLKAAFLKATDELIAAVTAHWREDFTVLRLHGDCHAGNILWRDGPMFVDLDDARNGPAVQDLWMLLNGDKAEQRMQLETIIEAYEEFSEFDTAEIGLIEPLRAMRLVYYLAWLMRRWADPAFPKNFPWLTGEDYWLRQTATFIEQAKVLQEPPLQLTPMY [P0C0K3] | 2.99
MTLTASSSSRAVTNSPVVVALDYHNRDDALAFVDKIDPRDCRLKVGKEMFTLFGPQFVRELQQRGFDIFLDLKFHDIPNTAAHAVAAAADLGVWMVNVHASGGARMMTAAREALVPFGKDAPLLIAVTVLTSMEASDLVDLGMTLSPADYAERLAALTQKCGLDGVVCSAQEAVRFKQVFGQEFKLVTPGIRPQGSEAGDQRRIMTPEQALSAGVDYMVIGRPVTQSVDPAQTLKAINASLQRSA | 2.89
MTDYAISKKSKRSLWIPILVFITLAACASAGYSYWHSHQVAADDKAQQRVVPSPVFYALDTFTVNLGDADRVLYIGITLRLKDEATRSRLSEYLPEVRSRLLLLFSRQDAAVLATEEGKKNLIAEIKTTLSTPLVAGQPKQDVTDVLYTAFILR [P0ABX8] | 1.72
MPSTPEEKKKVLTRVRRIRGQIDALERSLEGDAECRAILQQIAAVRGAANGLMAEVLESHIRETFDRNDCYSREVSQSVDDTIELVRAYLK [P0AAP3] | 2.5

GET /value?item= MANPTVIKLQDGNVMPQLGLGVWQASNEEVITAIQKALEVGYRSIDTAAAYKNEEGVGKALKNASVNREELFITTKLWNDDHKRPREALLDSLKKLQLDYIDLYLMHWPVPAIDHYVEAWKGMIELQKEGLIKSIGVCNFQIHHLQRLIDETGVTPVINQIELHPLMQQRQLHAWNATHKIQTESWSPLAQGGKGVFDQKVIRDLADKYGKTPAQIVIRWHLDSGLVVIPKSVTPSRIAENFDVWDFRLDKDELGEIAKLDQGKRLGPDPDQFGG &field=total protein half-life in vivo returns 3.7

FYI, the data here is from the supplement of paper PMC11246515.
